- Test system: P.a. Harvard PA14
- Assay Name: Biofilm (colony architecture) formation on defined M63 medium
- Type: cell-based, Pseudomonas aeruginosa
- Condition Parameters: 500 μM
Recorded Metric: Biofilm formation on defined medium (FIG. 20)

N[C@@H](Cc1c[nH]c2ccccc12)C(=O)O [L-tryptophan, reference compound] : did not
N[C@@H](Cc1ccc(O)cc1)C(=O)O [L-tyrosine, reference compound] : did not
